# Test system: SW-620 colon
# protocol_notes: NCI-60 one-dose screen, 48 h (100 = growth as untreated, 0 = no growth, -100 = all killed)
# reported_conditions: 10 µM unless noted
About 83,000 compounds went through this panel and 20% of them were active in at least one assay; those are over-represented in the sample as a whole. The source made the active and inactive calls. Rule for the calls: active = growth percent below 10; inactive = the rest.

compound | growth
C=CN(C(=O)N1CCN(c2cc3c(cc2F)c(=O)c(C(=O)O)cn3C2CC2)CC1)c1nc(-c2ccc(OC)cc2)cs1 | 22.2% (inactive)
Cc1ccc(N2C(=O)CCC2=O)cc1 | 96.1% (inactive)
C=C(C)[C@@H]1CC[C@]2(COC(C)=O)CC[C@]3(C)[C@H](CC[C@@H]4[C@@]5(C)CCCN(C(C)=O)C(C)(C)[C@@H]5CC[C@]43C)[C@@H]12 | -53.9% (active)
Cc1ccc(Cl)cc1NC(=O)c1sc2nc3c(cc2c1N)C(=O)CCC3 | 36.5% (inactive)
CCOc1ccc(-n2nc(C(=O)NCc3ccccc3OC)nc2-c2cc(OC)c(OC)c(OC)c2)cc1 | 58% (inactive)
COc1ccc(-c2nc(/C=C3\C(=O)N(C)c4ccccc43)c3ccccn23)cc1 | 84.7% (inactive)
CCCCNC(=O)Oc1ccc(/C(=C(/C)Cc2ccc(OC)cc2)c2ccc(OCCN3CCCCCC3)cc2)cc1 | 85.9% (inactive)
CNC1=C([N+](=O)[O-])C(c2ccc(OC)cc2)C(C#N)=C(c2cccs2)O1 (centres undefined) | 106% (inactive)
CS(=O)(=O)Nc1cc(-c2ccc3ncc(C#N)c(Nc4ccc(F)c(Cl)c4)c3c2)cnc1Cl | 5.69% (active)

* * *

# Tested on: K-562 leukemia
# protocol_notes: NCI-60 one-dose screen, 48 h
# reported_conditions: 10 µM unless noted
This is part of a sample that, as a whole, favours compounds with a hit. Of some 83,000 tested, about 20% had one in any assay. Active and inactive are the calls of the source. Rule for the calls: active = growth percent below 10; inactive = the rest.
Labels: active, inactive

compound | class_name
Nc1nc(N)c2c(n1)NC(c1ccc(Cl)cc1)C1CCc3ccccc3C1=N2 (stereo not given) | inactive
NNCCc1ccc(NC(=O)CCCc2ccc(C(=O)Nc3ccccc3N)cc2)cc1 | inactive
COc1ccc(C[n+]2c3ccccc3n3c4ccc(N)cc4ccc32)c(OC)c1OC | inactive
CC(C)=CCNc1ncnc2c1ncn2C1OC(CO)C(O)C1O (stereo not given) | active
CCCn1cnc2c(c1=N)C(c1ccc(F)cc1)c1sc3c(F)cccc3c1O2 (stereo not given) | inactive
O=C(N=Nc1c(O)[nH]c2ccccc12)Nc1ccc(F)cc1 | inactive
COc1ccc(C2=NN(C(C)=O)C(c3cn(-c4ccccc4)nc3-c3ccc(Cl)cc3)C2)cc1 (stereo not given) | inactive
COc1cc2c(cc1OCCCCN1CCN(C(=S)SCCC(C#N)(c3ccccc3)c3ccccc3)CC1)N=C[C@@H]1CCCN1C2=O | active
Ic1ccccc1I | inactive
O=C(N/N=C\c1cccc([N+](=O)[O-])c1)N/N=C/c1cccc([N+](=O)[O-])c1 | inactive
Cc1nc2cc(O)c(O)cc2cc1Oc1ccc(NC(=O)Nc2ccc(Cl)c(Cl)c2)cc1 | inactive
O=C(Nc1cc(Cl)ccc1O)c1cccc(Nc2ccnc(C(F)(F)F)c2)c1 | active
C[C@]1(O)CC(=O)[C@]2(O)C3=C(C=C[C@]2(O)C1)C(=O)c1c(O)cccc1C3=O | active
CN(C)S(=O)(=O)Oc1ccc(-c2sc3cc(OS(=O)(=O)N(C)C)ccc3c2C(=O)c2ccc(OCCN3CCCCC3)cc2)cc1 | active
O=C1c2ccccc2C(=O)c2c1cc1c(c2[N+](=O)[O-])OCO1 | inactive
CCN1C(=O)N(CC)C2C1NC(=S)N2/N=C/c1ccc(OC)cc1 (stereo not given) | inactive
N#Cc1cccc(C2C3=C(COC3=O)N(CCO)c3cc4c(cc32)CCC4)c1 (stereo not given) | active
C#CCNC(=O)[C@]1(C)CCC[C@@]2(C)[C@H]1CC=C1C=C(C(C)C)CC[C@@H]12 | inactive
COC1=C(C)C(=O)N2[C@@H]1[C@H](c1ccccc1)OC21C=CC(=O)C=C1 | active
CCNc1nc(O)c(/C=C2\C=Nc3ncccc32)s1 | inactive

* * *

# Tested on: SF-268 CNS
# protocol_notes: NCI-60 one-dose screen, 48 h (100 = growth as untreated, 0 = no growth, -100 = all killed)
# reported_conditions: 10 µM unless noted
Compounds without any hit were thinned out: in the full panel of roughly 83,000, 20% have a hit.
Threshold check on growth: strictly below 50% is fulfilled; on or above 50% is not fulfilled.

molecule | experimental_system | class_name
CCOC(=O)C(Cc1ccc(OC)cc1)C(=O)OCC | SF-268 CNS | fulfilled
CC(C)(C)c1cc(Cl)c(O)c(CNCCO)c1 | SF-268 CNS | not fulfilled
COc1ccc(C2CC(c3cc(OC)c(OC)c(OC)c3)=NO2)cc1OCCCCOc1cc2c(cc1OC)C(=O)N1CCC[C@H]1C=N2 (stereo not given in full) | SF-268 CNS | fulfilled
CNCc1cccc2c1OCCOCCOCCNS(=O)(=O)c1ccc(cc1)-c1cnc(N)c(n1)C(=O)N2 | SF-268 CNS | fulfilled
CCS/C(Nc1ccccc1)=C(\C#N)C(=O)Nc1ccc(OC)cc1 | SF-268 CNS | fulfilled
CN(C)CCCC1(c2ccc(F)cc2)OCc2cc(-c3ccc4cc[nH]c4c3)ccc21 (stereo not given) | SF-268 CNS | not fulfilled
COc1cccc(C(=O)NNc2nc(Cl)nc(Cl)n2)c1 | SF-268 CNS | not fulfilled
Cc1ccc(-c2csc(N(C(=O)N3CCN(c4cc5c(cc4F)c(=O)c(C(=O)O)cn5C4CC4)CC3)c3ccccc3)n2)cc1 | SF-268 CNS | fulfilled
CC(C)CCN(CCC(C)C)CC(O)c1cc2c(c3ccccc13)CCCC2 (stereo not given) | SF-268 CNS | not fulfilled
O=C1Nc2ccccc2C1(c1c[nH]c2ccccc12)c1c[nH]c2ccccc12 | SF-268 CNS | not fulfilled

* * *

# System: SR leukemia
# protocol_notes: NCI-60 one-dose screen, 48 h
# reported_conditions: 10 µM unless noted
The panel holds about 83,000 compounds, 20% with a hit somewhere; the sample as a whole holds those more often. Activity calls are given as the source filed them. Rule for the calls: active = growth percent below 10; inactive = the rest.
Labels: active, inactive

compound | class_name
COc1ccc(-c2nc(-c3cn(C)c4ncccc34)cs2)cc1 | inactive
Cc1ccc(C)c(/C=C2\CN(C(=O)OC(C)(C)C)C/C(=C\c3cc(C)ccc3C)C2=O)c1 | active
C=CC(=O)Nc1ccc(Nc2nccc(-c3ccc(N4CCCC4)c(C#N)c3)n2)cc1 | active
CCOC(=O)c1c(C)nc2ccccc2c1/C=C/c1ccccc1 | inactive
CNC1=CC(=O)c2c(C(=O)OC)c(C)[n+]([O-])c(C)c2C1=O | inactive
CC/C=C\CCC/C=C1/C(=O)C=C[C@@H]1C/C=C\CCCC(=O)OC | active
C=C1C(=O)O[C@H]2[C@H]1CC/C(COC(=O)/C=C\C(=O)NCc1ccc(Cn3c(=O)sn(CCCCC)c3=O)cc1)=C\CC[C@@]1(C)O[C@@H]21 | inactive
CSC1=Nc2c(c(C)c(-c3ccccc3)n2CCCC(=O)O)C2=NC(=O)C[C@H](C)N12 | inactive
C[C@]1(O)CC(=O)[C@]2(O)C3=C(C=C[C@]2(O)C1)C(=O)c1c(O)cccc1C3=O | inactive
CO[C@H]1CC(=O)n2c3ccccc3c3c4c(c5c6ccccc6n1c5c32)C(=O)NC4=O | inactive
CCC1S/C(=N\N=C(\C)c2cc3cc(Cl)ccc3o2)N(c2ccccc2)C1=O (centres undefined) | inactive
Cc1ccc(-c2csc(NC(=O)c3ccccc3CN3C(=O)c4ccccc4C3=O)n2)cc1 | inactive
Cc1ccc(-c2nc(SCc3nc4cc(Cl)c(Cl)cc4[nH]3)[nH]c(=O)c2C#N)cc1 | inactive
O=C(CSc1nnc(-c2cc(-c3ccccc3)nc3ccccc23)n1-c1ccccc1)Nc1ccc(C(=O)/C=C/c2ccc(Cl)cc2)cc1 | inactive
CN(Cc1ccccc1)c1nc(Cl)c(C2CC(c3ccccc3)=NN2c2ccccc2)s1 (centres undefined) | inactive
CN(CCC(=O)c1ccccc1)CCC(=O)c1ccccc1 | inactive
CCCCNc1nnc2n(Cc3ccccc3)c(=O)c3c4c(sc3n12)CCCC4 | active
N#CC1=C(N)Oc2ccc3ccccc3c2C1c1ccc([N+](=O)[O-])cc1 (centres undefined) | inactive
O=C(CN1CCCCCC1)Nc1nc2ccc(NCc3ccc(Cl)cc3)cc2s1 | inactive

* * *

# System: T-47D breast
# protocol_notes: NCI-60 one-dose screen, 48 h
# reported_conditions: 10 µM unless noted
The panel holds about 83,000 compounds, 20% with a hit somewhere; the sample as a whole holds those more often. Calls of active or inactive are those of the source. How the source made its calls: active means growth percent below 10; inactive means the rest.
Outcomes: 1.0 = active, 0.0 = inactive

input_smiles | class_name
CCN1CCN(CCNc2nccc(-c3c(-c4ccc(F)c(OC)c4)nc4sccn34)n2)S1(=O)=O | 0.0
COc1cc(C(=O)n2nc(N3CCOCC3)c3cc(-n4cccc4)ccc32)cc(OC)c1OC | 0.0
COc1ccc(N2CCC(=S)NC2=S)cc1 | 0.0
CNC1=CC(=O)c2c(C(=O)OC)c(C)[n+]([O-])c(C)c2C1=O | 0.0
C=CCN1C(=O)c2cccc3c(N4CCOCC4)ccc(c23)C1=O | 1.0
C=C1C(=O)O[C@H]2[C@H]1CC/C(COC(=O)/C=C/C(=O)OC/C1=C/CC[C@@]3(C)O[C@H]3[C@H]3OC(=O)C(=C)[C@@H]3CC1)=C\CC[C@@]1(C)O[C@@H]21 | 0.0
COC1=C(C)C(=O)N2[C@@H]1[C@H](c1ccccc1)OC21C=CC(=O)C=C1 | 0.0
CCc1ccc(CCC(=O)Nc2ncc(Cc3cc(Cl)ccc3Cl)s2)o1 | 0.0
C=CN(C(=O)N1CCN(c2cc3c(cc2F)c(=O)c(C(=O)O)cn3C2CC2)CC1)c1nc(-c2ccc(OC)cc2)cs1 | 0.0

Origin of the recorded values: PubChem BioAssay (NCI)
